Biological target: human Cathepsin S (Homo sapiens (Human), UniProt P25774)
Sequence (P25774 115-331): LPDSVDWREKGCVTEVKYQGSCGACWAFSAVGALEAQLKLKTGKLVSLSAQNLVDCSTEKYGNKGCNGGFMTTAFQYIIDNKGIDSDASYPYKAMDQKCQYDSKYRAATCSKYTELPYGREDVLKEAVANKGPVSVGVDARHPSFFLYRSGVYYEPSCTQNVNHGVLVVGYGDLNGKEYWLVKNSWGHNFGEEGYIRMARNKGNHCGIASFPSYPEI
quantity.name: IC50 (pM)
Give just the number in pM; leave the unit off.

Example molecules with recorded IC50:
>>> assay_value("N#CC1(NC(=O)[C@@H]2C[C@@H](S(=O)(=O)c3ccccc3F)CN2C(=O)C2(c3ncc(I)cc3F)CC2)CC1")
600
>>> assay_value("N#CC1(NC(=O)[C@@H]2C[C@@H](S(=O)(=O)c3ccccc3Cl)CN2C(=O)C2(c3ncc(Cl)cc3F)CC2)CC1")
398
>>> assay_value("N#CC1(NC(=O)[C@@H]2C[C@@H](Sc3ncccc3Cl)CN2C(=O)C2(c3ncc(Cl)cc3F)CC2)CC1")
964000
>>> assay_value("N#CC1(NC(=O)[C@@H]2C[C@@H](S(=O)(=O)c3ccc(OCC(F)(F)F)cc3Cl)CN2C(=O)C2(c3ncc(Cl)cc3F)CC2)CC1")
675
>>> assay_value("N#CC1(NC(=O)[C@@H]2C[C@@H](S(=O)(=O)c3ccc(F)cc3Cl)CN2C(=O)C2(c3ncc(Cl)cc3F)CC2)CC1")
602

GET /value?item= `N#CC1(NC(=O)[C@@H]2C[C@@H](S(=O)(=O)c3ccccc3-n3cccn3)CN2C(=O)C2(c3ncc(Cl)cc3F)CC2)CC1` &field=IC50 returns 159000

====

The molecules below have reported IC50 for human Cathepsin S (Homo sapiens (Human), UniProt P25774).
API: value field is a number in nM; no unit string.

>>> assay_value("COc1ccc(S(=O)(=O)[C@@H]2C[C@@H](C(=O)NC3(C#N)CC3)N(C(=O)C3(c4ncc(Br)cc4F)CC3)C2)c(Cl)c1 [Example 7]")
0.734

Lab book: IC50 of C[C@H](Oc1ccc(S(=O)(=O)[C@@H]2C[C@@H](C(=O)NC3(C#N)CC3)N(C(=O)C3(c4ncc(Cl)cc4F)CC3)C2)c(Cl)c1)C(F)(F)F [Example 27] noted as 1.6

The molecule listed as N#CC1(NC(=O)[C@@H]2C[C@@H](S(=O)(=O)c3ccc(C(F)(F)F)cn3)CN2C(=O)C2(c3ncc(Cl)cc3F)CC2)CC1 [Example 24] has a reported IC50 of 6.24

====

Here's a batch of compounds along with measured IC50 for human Cathepsin S (Homo sapiens (Human), UniProt P25774).
Give just the number in nM; leave the unit off.

Here are 5 compounds together with their reported answers.
>>> assay_value("N#CC1(NC(=O)[C@@H]2C[C@@H](Sc3ncccc3C(F)(F)F)CN2C(=O)C2(c3ncc(Cl)cc3F)CC2)CC1")
275
>>> assay_value("N#CC1(NC(=O)[C@@H]2C[C@@H](S(=O)(=O)c3ccccc3-n3ccnn3)CN2C(=O)C2(c3ncc(I)cc3F)CC2)CC1")
2.37
>>> assay_value("Cc1ncccc1-c1ccc(S(=O)(=O)[C@@H]2C[C@@H](C(=O)NC3(C#N)CC3)N(C(=O)C3(c4ncc(Cl)cc4F)CC3)C2)c(Cl)c1")
0.322
>>> assay_value("Cc1ncccc1-c1ccc(S(=O)(=O)[C@@H]2C[C@@H](C(=O)NC3(C#N)CC3)N(C(=O)C3(c4ncc(C(F)(F)F)cc4F)CC3)C2)c(Cl)c1")
0.768
>>> assay_value("N#CC1(NC(=O)[C@@H]2C[C@@H](S(=O)(=O)c3ccccc3-n3cccn3)CN2C(=O)C2(c3ncc(I)cc3F)CC2)CC1")
17

Next compound, please.
compound `N#CC1(NC(=O)[C@@H]2C[C@@H](S(=O)(=O)c3ccc(Cl)cn3)CN2C(=O)C2(c3ncc(Cl)cc3F)CC2)CC1` , IC50 observed: 3
